biological target: T1, Human CD47-C33G (human, UniProt Q08722 19-135); experiment: SPR, IgG captured, CD47 in flow; exp 2;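 further: IgG from HEK293 cell supernatants tested by SPR on a BIAcore T200, C33G mutein prevents IgV homodimers for monovalent affinity, KD derived from association and dissociation rates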
T1 construct: also called CD47 mutein with C33G mutation
T1 sequence (Q08722 19-135 C33G limits assumed): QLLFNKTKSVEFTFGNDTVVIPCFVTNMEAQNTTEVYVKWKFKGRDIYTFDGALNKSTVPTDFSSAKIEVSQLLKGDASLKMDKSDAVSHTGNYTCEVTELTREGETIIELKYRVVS
Quantity: koff (s⁻¹)

[[record]]
binder = "108VH5 / 108VL1.M5 (antibody, human IgG4 S228P, kappa, V domains shown, Full-length IgG4 (S228P), kappa; also called VH5 VL1.M5) VH: EVQLVQSGAEVKKPGASVKVSCKASGYSFTHHWIHWVRQAPGQGLEWMGMIDPSDSETRLSQKFKDRVTMTRDTSTSTVYMELSSLRSEDTAVYYCARLGRYYFDYWGQGTLVTVSS VL: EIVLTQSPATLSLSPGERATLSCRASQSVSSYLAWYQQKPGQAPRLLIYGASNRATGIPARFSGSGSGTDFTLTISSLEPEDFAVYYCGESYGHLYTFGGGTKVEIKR"
quantity = "koff"
recorded_measurement = 0.0012

[[record]]
binder = "108VH5.M14 / 108VL1.M5 (antibody, human IgG4 S228P, kappa, V domains shown, Full-length IgG4 (S228P), kappa; also called VH5.M14 VL1.M5) VH: EVQLVQSGAEVKKPGASVKVSCKASGYTFTHHWIHWVRQAPGQGLEWMGMIDASDGETRYAQKFQGRVTMTRDTSTSTVYMELSSLRSEDTAVYYCARLGRYYFDYWGQGTLVTVSS VL: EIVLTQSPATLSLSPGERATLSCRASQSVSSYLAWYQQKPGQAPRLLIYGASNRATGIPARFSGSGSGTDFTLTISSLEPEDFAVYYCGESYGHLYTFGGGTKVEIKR"
quantity = "koff"
recorded_measurement = 0.0037

[[record]]
binder = "108VH5.M10 / 108VL1.M5 (antibody, human IgG4 S228P, kappa, V domains shown, Full-length IgG4 (S228P), kappa; also called VH5.M10 VL1.M5) VH: EVQLVQSGAEVKKPGASVKVSCKASGYTFTHHWIHWVRQAPGQGLEWMGMIDASDSETRYAQKFQGRVTMTRDTSTSTVYMELSSLRSEDTAVYYCARLGRYYFDYWGQGTLVTVSS VL: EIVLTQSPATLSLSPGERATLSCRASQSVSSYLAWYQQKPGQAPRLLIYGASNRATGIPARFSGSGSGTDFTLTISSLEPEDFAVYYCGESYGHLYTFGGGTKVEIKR"
quantity = "koff"
recorded_measurement = 0.004

[[record]]
binder = "chimeric antibody 108C10A6 (antibody, V domains shown, Chimeric antibody with mouse variable domains; captured through human Fc; also called VH / VL) VH: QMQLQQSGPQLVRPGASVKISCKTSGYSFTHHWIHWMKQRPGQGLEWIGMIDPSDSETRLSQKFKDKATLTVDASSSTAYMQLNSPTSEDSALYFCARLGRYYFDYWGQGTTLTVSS VL: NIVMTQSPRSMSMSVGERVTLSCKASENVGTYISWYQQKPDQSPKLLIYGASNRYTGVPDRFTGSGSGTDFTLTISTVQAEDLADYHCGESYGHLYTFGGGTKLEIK"
quantity = "koff"
recorded_measurement = 0.00073


Reference source: patent US20260132197A1
